The measurements presented in this section are drawn from paper PMC6511888.

readoutType: melting point

Examples from the recorded data:
[
  {
    "compound": "Cc1cc(C)n(-c2nnc(-c3ccc(Cl)cc3)s2)n1 [Compound 11d]",
    "melting point": "202 to 203 °C"
  },
  {
    "compound": "Cc1cc(C)n(-c2nnc(-c3ccccc3)s2)n1 [Compound 11a]",
    "melting point": "170 to 171 °C"
  }
]

Entry under test: `CCOC(=O)c1cnn(-c2nnc(-c3ccc(F)cc3)s2)c1N` . Its melting point was 250 to 251 °C

The compound identified as Cc1cc(C(F)(F)F)nn1-c1nnc(-c2ccc(Cl)cc2)s1 [Compound 14d] registered its melting point at 147 to 148 °C

melting point reading for Cc1cc(C)n(-c2nnc(-c3ccccc3Cl)s2)n1 [Compound 11b] : 163 to 165 °C

Record `CCOC(=O)c1cnn(-c2nnc(-c3ccc(Cl)cc3)s2)c1N` , field melting point: 252 to 253 °C

Per the record, `N#Cc1cnn(-c2nnc(-c3ccccc3Cl)s2)c1N` has melting point of 250 to 251 °C

Sample Cc1cc(C(F)(F)F)nn1-c1nnc(-c2ccccc2)s1 [Compound 14a] ; melting point observed: 163 to 164 °C

Just so you know, measured melting point for `N#Cc1cnn(-c2nnc(-c3ccccc3)s2)c1N` came out at 234 to 235 °C

Reported melting point ( CC1(O)CC(C(F)(F)F)=NN1c1nnc(-c2ccc(F)cc2)s1 (centres unmarked) [Compound 13c] ) = 182 to 183 °C

Note to self: melting point recorded for CC1(O)CC(C(F)(F)F)=NN1c1nnc(-c2ccccc2)s1 (centres unmarked) [Compound 13a] was 183 to 185 °C

Notebook: `N#Cc1cnn(-c2nnc(-c3ccc(F)cc3)s2)c1N` , melting point read as 262 to 263 °C

Input `CCOC(=O)c1cnn(-c2nnc(-c3ccccc3)s2)c1N` . Output melting point: 165 to 167 °C

// sample Cc1cc(C(F)(F)F)nn1-c1nnc(-c2ccc(F)cc2)s1 [Compound 14c] , its melting point was 149 to 150 °C

---

In this section we review reported logD values for a set of compounds.
procedureText: Distribution coefficient (Log D) in octanol/PBS pH 7.4
Format: physicochemical
statedConditions: average of three experiments, read-out: Log D7.4

// below: answered compounds
[
  {
    "compound": "N#Cc1cnn(-c2nnc(-c3ccccc3Cl)s2)c1N",
    "logD": -1.2
  },
  {
    "compound": "N#Cc1cnn(-c2nnc(-c3ccc(F)cc3)s2)c1N",
    "logD": -0.9
  },
  {
    "compound": "CCOC(=O)c1cnn(-c2nnc(-c3ccccc3Cl)s2)c1N",
    "logD": -3.7
  }
]

Read the next record carefully.
The compound listed as Cc1cc(C)n(-c2nnc(-c3ccc(F)cc3)s2)n1 [Compound 11c] has a reported logD of -4.2

---

The compounds listed here are annotated with their melting point.

Some entries whose results are on file:
[
  {
    "compound": "N#Cc1cnn(-c2nnc(-c3ccc(Cl)cc3)s2)c1N",
    "melting point": "> 300 °C"
  },
  {
    "compound": "CCOC(=O)c1cnn(-c2nnc(-c3ccccc3Cl)s2)c1N",
    "melting point": "190 to 191 °C"
  },
  {
    "compound": "Cc1cc(C)n(-c2nnc(-c3ccc(F)cc3)s2)n1 [Compound 11c]",
    "melting point": "174 °C"
  },
  {
    "compound": "Cc1cc(C(F)(F)F)nn1-c1nnc(-c2ccccc2Cl)s1 [Compound 14b]",
    "melting point": "139 to 140 °C"
  }
]

Read the next record carefully.
# melting point of CC1(O)CC(C(F)(F)F)=NN1c1nnc(-c2ccc(Cl)cc2)s1 (centres unmarked) [Compound 13d] = 184 to 185 °C
